src = patent US20200247894A1

Experimental system: T1, human IL2Rγ (endogenously expressed on cells) (human, UniProt P31785 23-369)
T1 sequence (looked up): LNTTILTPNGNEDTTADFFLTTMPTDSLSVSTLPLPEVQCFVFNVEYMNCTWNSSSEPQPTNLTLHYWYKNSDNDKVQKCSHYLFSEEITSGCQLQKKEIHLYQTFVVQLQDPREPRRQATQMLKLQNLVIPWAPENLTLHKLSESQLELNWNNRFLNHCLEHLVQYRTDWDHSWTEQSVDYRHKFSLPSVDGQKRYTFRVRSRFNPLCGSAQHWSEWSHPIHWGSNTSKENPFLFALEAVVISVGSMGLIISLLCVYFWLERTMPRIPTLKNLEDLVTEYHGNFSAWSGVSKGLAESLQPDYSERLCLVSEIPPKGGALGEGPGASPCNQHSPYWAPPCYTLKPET
Assay text: cell-based or functional assay
Classify by measured Max Inhibition (%); IL-4 250 pM; Ramos.2G6.4C10/STAT3-luc: t if it is equal to or exceeds 70%, f if it is smaller.

| Binder | Assigned label |
| --- | --- |
| H4H12886P (antibody, human IgG4 S228P, kappa, V domains shown, human IgG4) VH: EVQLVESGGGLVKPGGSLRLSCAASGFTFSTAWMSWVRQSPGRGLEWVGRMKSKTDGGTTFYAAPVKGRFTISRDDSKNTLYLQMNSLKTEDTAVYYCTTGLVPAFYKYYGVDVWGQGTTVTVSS VL: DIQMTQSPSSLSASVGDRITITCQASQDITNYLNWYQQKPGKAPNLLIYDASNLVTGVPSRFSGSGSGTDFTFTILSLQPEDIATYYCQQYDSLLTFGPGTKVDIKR | t |
| H4H12889P (antibody, human IgG4 S228P, kappa, V domains shown, human IgG4; also called REGN7257) VH: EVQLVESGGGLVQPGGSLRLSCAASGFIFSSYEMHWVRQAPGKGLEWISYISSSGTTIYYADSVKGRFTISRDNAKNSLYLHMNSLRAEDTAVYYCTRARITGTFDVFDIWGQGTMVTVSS VL: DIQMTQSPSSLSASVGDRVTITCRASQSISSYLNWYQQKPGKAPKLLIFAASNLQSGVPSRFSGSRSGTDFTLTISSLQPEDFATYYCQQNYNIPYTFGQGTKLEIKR | t |
| H4H12857P (antibody, human IgG4 S228P, kappa, V domains shown, human IgG4; also called REGN9432) VH: EVQLVESGGGVVRPGGSLRLSCAASGFTFDDFDMSWVRQGPGKGLEWVSGINWHGSSTGYADSVKGRFTISRDNAKNSLYLQMSSLRAEDTALYHCVRGGTIVGATTPLDYWGQGTLVTVSS VL: DIQMTQSPSSLSASVGDRVTMTCRASRTISSYLSWYQQKSGKVPNLLIFGASSLQSGVPSRFSASGSGTDFTLIISSLQPEDFATYYCQQSYSSPLTFGGGTKVEIKR | t |
| H4H12884P (antibody, human IgG4 S228P, kappa, V domains shown, human IgG4) VH: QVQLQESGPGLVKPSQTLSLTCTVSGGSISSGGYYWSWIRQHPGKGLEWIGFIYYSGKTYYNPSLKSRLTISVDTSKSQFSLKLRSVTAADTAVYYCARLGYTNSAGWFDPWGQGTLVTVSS VL: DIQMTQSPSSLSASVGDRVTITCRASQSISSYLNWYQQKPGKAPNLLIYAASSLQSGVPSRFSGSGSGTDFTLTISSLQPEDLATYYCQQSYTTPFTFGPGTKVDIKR | f |
| H4H12871P (antibody, human IgG4 S228P, kappa, V domains shown, human IgG4; also called REGN9434) VH: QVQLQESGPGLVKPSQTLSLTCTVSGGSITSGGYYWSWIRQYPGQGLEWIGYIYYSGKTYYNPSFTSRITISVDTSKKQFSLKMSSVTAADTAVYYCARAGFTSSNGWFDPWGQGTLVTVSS VL: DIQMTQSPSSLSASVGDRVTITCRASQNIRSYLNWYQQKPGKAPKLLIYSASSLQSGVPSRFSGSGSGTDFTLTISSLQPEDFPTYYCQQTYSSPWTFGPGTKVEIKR | f |
| H4H12890P (antibody, human IgG4 S228P, kappa, V domains shown, human IgG4) VH: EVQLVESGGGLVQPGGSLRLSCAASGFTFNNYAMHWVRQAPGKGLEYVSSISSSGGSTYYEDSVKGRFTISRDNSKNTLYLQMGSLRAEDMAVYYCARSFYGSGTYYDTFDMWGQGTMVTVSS VL: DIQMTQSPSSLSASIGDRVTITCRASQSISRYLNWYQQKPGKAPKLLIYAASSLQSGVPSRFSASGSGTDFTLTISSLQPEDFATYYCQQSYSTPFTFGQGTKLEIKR | f |
